Target: PrRPR (WT) (Homo sapiens)
Construct: expressed in transfected cells; host or cells: HEK293, transient transfection by electroporation
Sequence (P49683 1-370): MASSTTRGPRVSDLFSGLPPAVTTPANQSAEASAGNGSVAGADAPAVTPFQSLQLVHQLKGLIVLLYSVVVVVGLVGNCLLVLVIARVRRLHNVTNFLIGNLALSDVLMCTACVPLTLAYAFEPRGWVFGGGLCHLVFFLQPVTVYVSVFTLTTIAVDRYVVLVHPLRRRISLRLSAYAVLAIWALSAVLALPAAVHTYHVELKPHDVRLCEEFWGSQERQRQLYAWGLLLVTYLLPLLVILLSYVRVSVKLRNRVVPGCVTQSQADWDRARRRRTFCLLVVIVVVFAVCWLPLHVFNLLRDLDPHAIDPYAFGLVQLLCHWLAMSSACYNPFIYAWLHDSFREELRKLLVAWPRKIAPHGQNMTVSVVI
Experiment: PrRP-20-induced calcium mobilization, wild-type receptor
Type: cell-based
Details: HEK293, Fluo-4, mean ± S.E.M., n ≥ 3
Procedure: The gene encoding the WT QRFPR, PrPRR, KISS1R, NPFF1R, or NPFF2R was subcloned into the pcDNA3.0 vector with the addition of an N-terminal HA tag. […] For QRFPR, PrRPR, and KISS1R, HEK293 cells transfected with WT receptor or its mutants were seeded at a density of 4 × 10^4 per well into 96-well culture plates and incubated for 24 h at 37 °C in 5% CO2. […] EC50 and Emax values for each curve were calculated by Prism 8.0 software (GraphPad Software).
No end group written: not given here.
observedProperty: EC50 (nM)

# substance, experimentalValue
records = [
    ("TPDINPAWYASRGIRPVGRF-NH2 [PrRP-20, prolactin-releasing peptide]", 1.1),
]

###

Molecular target: PrRPR mutants (Homo sapiens, UniProt P49683, D302A/E213A/H321A/Q141A)
Construct: expressed in transfected cells; host or cells: HEK293, transient transfection by electroporation
Test: PrRP-20-induced calcium mobilization, receptor mutants
Format: cell-based
Conditions: PrRPR Q141^3.32A; HEK293, Fluo-4; mean ± S.E.M., n ≥ 3
pEC50: −log10 of the molar value. No end group written: not given here.
observedProperty: pEC50

# substance, measurementTarget, observedProperty, experimentalValue
measured = [
    ("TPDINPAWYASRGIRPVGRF-NH2 [PrRP-20, prolactin-releasing peptide]", "PrRPR mutants (Homo sapiens, UniProt P49683, D302A/E213A/H321A/Q141A)", "pEC50", 8.98),
]
